Listed molecules paired with reported TGI
# Test system: A498 renal
# test name: NCI tumour cell line growth inhibition, 48 h

{"molecule": "CC(C)C1(O)C(=O)N(c2c(F)c(F)c(F)c(F)c2F)C(=S)N1CCSc1ccccc1 (stereo not drawn)", "measurement target": "A498 renal", "value type": "TGI", "readout value": "29.8 µM"}
{"molecule": "COc1ccc2nc3n(c2c1)CCc1cc(OC)c(OC)cc1-3", "measurement target": "A498 renal", "value type": "TGI", "readout value": "> 100 µM"}

Read the next record carefully.
// query Entry under review: CC(NC(=O)c1ccccc1)(C(=O)O)C(=O)O . Reported TGI?
// result > 100 µM

###

As shown below, each of these compounds has a reported TGI value.
# Tested on: OVCAR-4 ovarian
# test name: NCI tumour cell line growth inhibition, 48 h

// known answers, use as guide
{"structure as smiles": "COc1ccc(CCc2cc(OC)c(OC)c(OC)c2)cc1", "value type": "TGI", "readout value": "> 92.5 µM"}
{"structure as smiles": "CNC(=O)CN(CC(N)=O)C(N)=O", "value type": "TGI", "readout value": "> 100 µM"}

// query Please give the measured TGI for this compound: CCOC(=O)c1cn(C)c(=S)n2c1nc1ccccc12
// result > 100 µM
